Origin of values: ChEMBL document CHEMBL1201862

system: SF-539; assay: NCI tumour cell line growth inhibition, 48 h
The source made the active and inactive calls. No stated cut-off is given here; in the data, active = GI50 up to about 1.1 µM and inactive = higher.
Choose the fitting class; nothing outside active, inactive is accepted.

Solved cases (5 shown):
C/C=C/C=C\C=C/C(O)C(C)C(CCC(C)C1OC(=O)C=CC1C)OP(=O)(O)O (stereo not given) : active
CC(C)[C@H](CCl)NC(=O)c1cccc(C(=O)N[C@H](CCl)C(C)C)n1 (stereo in doubt) : inactive
O=[N+]([O-])c1nccn1CCCNc1ccnc2cc(Cl)ccc12 : inactive
CC1CC(C)(O)C2C3(C)CCCC2(COC3=O)C12CCC1(CCOC1=O)O2 (stereo not given) : inactive
c1ccc(-c2ccc(-c3ccc(C4=NCCN4)cc3)o2)cc1 : inactive

Give the logged outcome of this assay for the following compound: CC12CC3CC(C1)CC(N=[N+]=[N-])(C3)C2
inactive

State the result this test recorded for COC(=O)CNS(=O)(=O)c1ccc(-c2c3nc(c(-c4ccc(S(=O)(=O)NCC(=O)OC)cc4)c4ccc([nH]4)c(-c4ccc(S(=O)(=O)NCC(=O)OC)cc4)c4nc(c(-c5ccc(S(=O)(=O)NCC(=O)OC)cc5)c5ccc2[nH]5)C=C4)C=C3)cc1 .
inactive

Field: outcome | Entry: COc1ccc(N(c2ccc(C#N)cc2)c2ccc(C#N)cc2)cc1
inactive

What outcome does the record of this test show for C=CCCC1(O)C(O)C(CO)O[C@H](O[C@@]2(CO)OC(CO)C(O)C2O)C1O (stereo not given in full) ?
inactive

Check the results log: what was the call for C/C(=C\CO)CC/C=C(\C)CNc1ccc([N+](=O)[O-])cc1 ?
inactive

* * *

system: NCI-H522; test: NCI tumour cell line growth inhibition, 48 h
Active and inactive are the calls of the source. Rule as the data show it: active = GI50 up to about 1.1 µM and inactive = higher.
Assay Readout: GI50

// solved cases for GI50 follow
O=S(=O)(O)c1ccc2cc(/N=N\c3cc(S(=O)(=O)O)c4cccnc4c3O)ccc2c1 : > 100 µM (inactive)
O=S(=O)(O)c1ccc2c(/N=N/c3cccc4ccccc34)c(O)c(S(=O)(=O)O)cc2c1 : > 100 µM (inactive)
CCOC(CN(C)C(=O)Nc1ccc(Cl)c(Cl)c1)OCC : > 10 µM (inactive)
COc1cc(OC2OC(CO)C(O)C(O)C2O)c2c(O)c3c(=O)cc(C)oc3cc2c1 (stereo not given) : > 100 µM (inactive)
COC(=O)C1Cc2c([nH]c3ccccc23)C=N1 (stereo not given) : > 100 µM (inactive)
OC1(C(O)(c2ccc(-c3ccccc3)cc2)c2ccc(-c3ccccc3)cc2)CCCCC1 : > 100 µM (inactive)

Complete the entry with GI50 for CCCCCCCCCCCCCCCCOCC(Cl)COP(=O)(O)OP(=O)(O)OCC1OC(n2cnc3c(N)ncnc32)C(O)C1O (stereo not given)
> 100 µM (inactive)

Note down GI50 recorded for CC(=O)OCc1ccc(-c2nc(C#N)c(N)o2)o1
> 10 µM (inactive)

Give a short answer stating reported GI50 for CC1=C(C(=O)NCc2ccccc2)C(c2ccco2)C(C(=O)NCc2ccccc2)=C(C)N1 .
85.1 µM (inactive)

Provide only the value of recorded GI50 for O=C(Nc1ccc(S(=O)(=O)Nc2ncccn2)cc1)c1c2ccccc2nc2ccccc12
> 100 µM (inactive)

* * *

test system: HT-29; experiment: NCI tumour cell line growth inhibition, 48 h
Active and inactive are the calls of the source. Cut-off read from the data, not from the text of the source: active = GI50 up to about 1.1 µM and inactive = higher.
// classify into TRUE for active, FALSE for inactive

Illustrative cases are given below, each with its answer.
CN(C)N1C(=O)S/C(=C\c2ccc([N+](=O)[O-])cc2)C1=O : FALSE
Cc1cc2nc3c(C#N)c4c(c(Nc5ccc(Cl)cc5)n3c2cc1C)CCC4 : FALSE
CCC1(C)C=Cc2c(cc(OC)c3c(=O)c4ccccc4n(C)c23)O1 (configuration not stated) : FALSE
COC(=O)CCc1cc(OC)c2c(c1)C(C(=O)OC)C(c1ccc(OC)c(OC)c1)O2 (configuration not stated) : FALSE
C[C@]12CC[C@H](O)CC1=CC[C@@H]1[C@@H]2CC[C@]2(C)C(=O)CC[C@@H]12 [PRASTERONE] : FALSE
CCCCC(=O)/C=c1/cc(C)[nH]c2cccc3cnn1c32 : FALSE

Would you mind telling me which call this test gave O=S(=O)(O)c1ccc2c(/N=N/c3cccc4ccccc34)c(O)c(S(=O)(=O)O)cc2c1 ?
FALSE

Please let me know the test result on file for O=S(=O)(O)c1ccc2cc(/N=N\c3cc(S(=O)(=O)O)c4cccnc4c3O)ccc2c1 .
FALSE

Which outcome was assigned to Oc1cc(-c2ccccn2)nc2cc(F)ccc12 in this test?
FALSE

For O=S(=O)(O)c1cc(/N=N/c2c(O)ccc3ccccc23)cc2c(S(=O)(=O)O)cccc12 , which call appears in the assay record?
FALSE

Kindly provide the recorded test outcome for the following molecule: CN(C)c1cccc(/C=C(\C#N)c2ccccc2)c1
TRUE
